kinase still bound, per cent of control values, listed per item
# System name: UniProtKB Q5VT25
# Sequence (Q5VT25 whole entry, looked up): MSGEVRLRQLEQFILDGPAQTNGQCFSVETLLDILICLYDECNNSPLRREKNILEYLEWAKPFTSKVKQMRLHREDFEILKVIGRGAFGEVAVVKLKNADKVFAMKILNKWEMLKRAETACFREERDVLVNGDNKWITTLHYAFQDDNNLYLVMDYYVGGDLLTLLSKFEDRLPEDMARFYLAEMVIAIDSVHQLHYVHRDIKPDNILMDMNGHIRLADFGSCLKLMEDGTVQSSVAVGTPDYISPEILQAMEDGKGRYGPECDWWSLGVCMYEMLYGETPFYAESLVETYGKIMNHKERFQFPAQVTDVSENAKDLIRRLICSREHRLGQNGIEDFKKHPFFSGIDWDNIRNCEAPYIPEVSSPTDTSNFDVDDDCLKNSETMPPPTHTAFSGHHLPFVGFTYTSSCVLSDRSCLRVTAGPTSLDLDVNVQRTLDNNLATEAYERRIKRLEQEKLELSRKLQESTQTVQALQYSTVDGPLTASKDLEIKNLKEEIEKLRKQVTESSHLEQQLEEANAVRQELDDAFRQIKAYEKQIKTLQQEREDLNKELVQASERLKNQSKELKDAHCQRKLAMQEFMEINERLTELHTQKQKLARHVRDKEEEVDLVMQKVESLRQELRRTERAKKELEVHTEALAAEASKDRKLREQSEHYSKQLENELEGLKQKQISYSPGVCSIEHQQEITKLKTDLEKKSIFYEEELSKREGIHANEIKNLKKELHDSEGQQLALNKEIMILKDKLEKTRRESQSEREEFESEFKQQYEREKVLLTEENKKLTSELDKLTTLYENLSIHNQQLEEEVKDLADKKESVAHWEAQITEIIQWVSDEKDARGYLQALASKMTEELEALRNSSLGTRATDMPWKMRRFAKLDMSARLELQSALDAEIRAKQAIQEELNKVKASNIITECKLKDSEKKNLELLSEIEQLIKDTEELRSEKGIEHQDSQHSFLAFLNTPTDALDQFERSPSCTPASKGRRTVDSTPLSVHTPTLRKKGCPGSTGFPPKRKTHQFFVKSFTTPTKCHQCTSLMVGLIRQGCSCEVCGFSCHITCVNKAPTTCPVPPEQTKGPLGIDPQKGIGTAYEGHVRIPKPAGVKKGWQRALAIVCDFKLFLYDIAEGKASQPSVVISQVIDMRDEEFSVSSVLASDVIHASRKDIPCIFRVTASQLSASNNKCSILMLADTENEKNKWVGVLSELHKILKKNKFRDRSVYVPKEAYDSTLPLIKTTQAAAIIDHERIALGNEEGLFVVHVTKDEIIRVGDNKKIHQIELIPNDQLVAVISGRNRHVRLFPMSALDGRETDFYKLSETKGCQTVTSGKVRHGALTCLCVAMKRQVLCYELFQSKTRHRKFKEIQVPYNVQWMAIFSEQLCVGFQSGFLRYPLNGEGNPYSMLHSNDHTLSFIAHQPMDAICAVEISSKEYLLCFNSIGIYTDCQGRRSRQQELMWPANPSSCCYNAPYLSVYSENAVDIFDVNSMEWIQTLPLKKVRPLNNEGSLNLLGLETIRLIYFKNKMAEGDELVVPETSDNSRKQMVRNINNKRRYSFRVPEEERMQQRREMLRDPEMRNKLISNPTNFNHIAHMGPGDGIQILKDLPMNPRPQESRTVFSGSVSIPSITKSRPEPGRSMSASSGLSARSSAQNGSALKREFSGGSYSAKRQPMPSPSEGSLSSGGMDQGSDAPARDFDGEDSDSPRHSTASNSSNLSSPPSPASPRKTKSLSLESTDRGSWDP
# Measurement description: KINOMEscan competition binding
# Experimental parameters: compound 10.0 µM
Kindly write the number and append the unit.

Use these answered entries as a reference point.
Smiles	System name	Quantity kind	Value reported
COc1cc(N2CCN(C)CC2)ccc1Nc1ncc2c(n1)N(C)c1ccccc1N(C)C2=O	UniProtKB Q5VT25	kinase still bound, per cent of control	100%
CN1C(=O)c2ccccc2N(C)c2nc(Nc3ccc(N4CCC(O)CC4)cc3)ncc21	UniProtKB Q5VT25	kinase still bound, per cent of control	90%
COc1cc(N2CCC(O)CC2)ccc1Nc1ncc2c(n1)N1CCc3cccc(c31)C(=O)N2C	UniProtKB Q5VT25	kinase still bound, per cent of control	100%
O=C1NC(=O)/C(=C/c2c[nH]c(=O)c(-c3ccc(N4CCNCC4)nc3)c2)S1	UniProtKB Q5VT25	kinase still bound, per cent of control	73%
COc1cc(N2CCN(C)CC2)ccc1Nc1ncc2c(n1)N(C)c1sccc1C(=O)N2C	UniProtKB Q5VT25	kinase still bound, per cent of control	98%

Field kinase still bound, per cent of control (entry `COc1cc(N2CCN(C)CC2)ccc1Nc1ncc2c(n1)Nc1ccccc1NC2=O` ) reads 100%

`CN1C(=O)c2ccccc2N(C)c2nc(NS(=O)(=O)c3ccc(N)cc3)ncc21` has a reported kinase still bound, per cent of control of 90%

So for `CN1CCN(c2ccc(C(=O)Nc3ncc4c(n3)N(C)c3ccccc3C(=O)N4C)cc2)CC1` , the logged kinase still bound, per cent of control turned out to be 100%

* * *

# maps each entry to its kinase still bound, per cent of control
# System name: ROS1 (human)
# Measurement description: KINOMEscan competition binding
# Experimental parameters: compound 10.0 µM
Unit % implied. Number only.

Worked cases, kinase still bound, per cent of control given:
Smiles	Quantity kind	Value reported
COc1cc(N2CCC(C(N)=O)CC2)ccc1Nc1ncc2c(n1)N(C1CCCC1)[C@@H]1CCC[C@@H]1C(=O)N2C	kinase still bound, per cent of control	31
COc1cc(C(=O)NC2CCN(C)CC2)ccc1Nc1ncc2c(n1)N(C1CCCC1)[C@@H]1CCC[C@@H]1C(=O)N2C	kinase still bound, per cent of control	31
CN1C(=O)c2ccccc2N(C)c2nc(NS(=O)(=O)c3ccc(N)cc3)ncc21	kinase still bound, per cent of control	100
COc1cc(N2CCN(C)CC2)ccc1Nc1ncc2c(n1)N(C)c1sccc1C(=O)N2C	kinase still bound, per cent of control	100
COc1cc(N2CCC(O)CC2)ccc1Nc1ncc2c(n1)N1CCc3cccc(c31)C(=O)N2C	kinase still bound, per cent of control	29
CN1C(=O)c2ccccc2N(C)c2nc(Nc3ccc(N4CCC(O)CC4)cn3)ncc21	kinase still bound, per cent of control	28

ROS1 (human) data for `O=C1NC(=S)S/C1=C\c1ccc(-c2cncc3ccccc23)o1` ; its kinase still bound, per cent of control: 34

The recorded kinase still bound, per cent of control with ROS1 (human) for `CCOc1cc(N2CCC(O)CC2)ccc1Nc1ncc2c(n1)N(C)c1ccccc1C(=O)N2C` was 15

kinase still bound, per cent of control value, target or system ROS1 (human), for `COc1cc(N2CCC(O)CC2)ccc1Nc1ncc2c(n1)N(C)c1ccccc1C(=O)N2C` : 5.8

* * *

Entries and their kinase still bound, per cent of control
# System name: ACVR1B (human)
# Measurement description: KINOMEscan competition binding
# Experimental parameters: compound 10.0 µM
I'd appreciate it if you included the unit after the number.

Smiles	System name	kinase still bound, per cent of control
CN1C(=O)c2ccccc2N(C)c2nc(NS(=O)(=O)c3ccc(N)cc3)ncc21	ACVR1B (human)	100%
COc1cc(N2CCN(C)CC2)ccc1Nc1ncc2c(n1)Nc1ccccc1NC2=O	ACVR1B (human)	100%
CN1C(=O)c2ccccc2N(C)c2nc(Nc3ccc(N4CCC(O)CC4)cc3)ncc21	ACVR1B (human)	91%
COc1cc(N2CCN(C)CC2)ccc1Nc1ncc2c(n1)N(C)c1ccccc1N(C)C2=O	ACVR1B (human)	100%
O=C1NC(=S)S/C1=C\c1ccc(-c2cncc3ccccc23)o1	ACVR1B (human)	32%
CN1CCN(c2ccc(C(=O)Nc3ncc4c(n3)N(C)c3ccccc3C(=O)N4C)cc2)CC1	ACVR1B (human)	100%
O=C1NC(=O)/C(=C/c2c[nH]c(=O)c(-c3ccc(N4CCNCC4)nc3)c2)S1	ACVR1B (human)	80%
COc1cc(N2CCN(C)CC2)ccc1Nc1ncc2c(n1)N(C)c1sccc1C(=O)N2C	ACVR1B (human)	86%

The molecule listed as `CS(=O)(=O)Nc1ccc(-c2cncc(/C=C3\SC(=N)NC3=O)c2)cc1` shows kinase still bound, per cent of control equal to 29%

Summary for this molecule, `COc1cc(N2CCC(O)CC2)ccc1Nc1ncc2c(n1)N1CCc3cccc(c31)C(=O)N2C` : kinase still bound, per cent of control is 100%

* * *

# System name: CAMK1G (human) (UniProt Q96NX5)
# Sequence (Q96NX5 whole entry, looked up): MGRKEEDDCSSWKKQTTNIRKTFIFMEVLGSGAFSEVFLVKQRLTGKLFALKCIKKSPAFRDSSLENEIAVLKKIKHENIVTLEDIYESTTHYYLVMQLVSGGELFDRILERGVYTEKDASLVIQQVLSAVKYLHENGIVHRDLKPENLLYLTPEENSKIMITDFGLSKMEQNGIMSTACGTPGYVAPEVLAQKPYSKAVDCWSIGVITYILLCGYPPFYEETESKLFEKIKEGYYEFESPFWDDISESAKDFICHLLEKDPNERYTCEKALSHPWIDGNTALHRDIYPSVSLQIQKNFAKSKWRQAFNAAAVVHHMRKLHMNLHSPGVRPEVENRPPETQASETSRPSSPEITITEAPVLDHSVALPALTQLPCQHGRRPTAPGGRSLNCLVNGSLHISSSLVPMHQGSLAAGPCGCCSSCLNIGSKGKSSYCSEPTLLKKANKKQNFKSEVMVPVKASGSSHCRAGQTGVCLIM
# Measurement description: KINOMEscan competition binding
# Experimental parameters: compound 10.0 µM
Quantity kind: kinase still bound, per cent of control (%)
Report the value in % with no unit label.

Previously resolved entries follow.
Smiles	kinase still bound, per cent of control, %
CN1C(=O)c2ccccc2N(C)c2nc(Nc3ccc(N4CCC(O)CC4)cc3)ncc21	91
N=C1NC(=O)/C(=C/c2ccc(-c3cncc4ccccc34)o2)S1	18
CN1C(=O)c2ccccc2N(C)c2nc(NS(=O)(=O)c3ccc(N)cc3)ncc21	100
O=C1NC(=O)/C(=C/c2c[nH]c(=O)c(-c3ccc(N4CCNCC4)nc3)c2)S1	85
COc1cc(N2CCC(O)CC2)ccc1Nc1ncc2c(n1)N1CCc3cccc(c31)C(=O)N2C	57
COc1cc(N2CCN(C)CC2)ccc1Nc1ncc2c(n1)N(C)c1ccccc1N(C)C2=O	100

Memo: `COc1cc(N2CCN(C)CC2)ccc1Nc1ncc2c(n1)N(C)c1sccc1C(=O)N2C` , reported kinase still bound, per cent of control: 68

// `CN1CCN(c2ccc(C(=O)Nc3ncc4c(n3)N(C)c3ccccc3C(=O)N4C)cc2)CC1` : kinase still bound, per cent of control value = 100

Briefly, kinase still bound, per cent of control measured for `COc1cc(N2CCN(C)CC2)ccc1Nc1ncc2c(n1)Nc1ccccc1NC2=O` : 100

Form field kinase still bound, per cent of control, entry `O=C1NC(=S)S/C1=C\c1ccc(-c2cncc3ccccc23)o1` : 34

* * *

# System name: UniProtKB Q16288
# Sequence (Q16288 whole entry, looked up): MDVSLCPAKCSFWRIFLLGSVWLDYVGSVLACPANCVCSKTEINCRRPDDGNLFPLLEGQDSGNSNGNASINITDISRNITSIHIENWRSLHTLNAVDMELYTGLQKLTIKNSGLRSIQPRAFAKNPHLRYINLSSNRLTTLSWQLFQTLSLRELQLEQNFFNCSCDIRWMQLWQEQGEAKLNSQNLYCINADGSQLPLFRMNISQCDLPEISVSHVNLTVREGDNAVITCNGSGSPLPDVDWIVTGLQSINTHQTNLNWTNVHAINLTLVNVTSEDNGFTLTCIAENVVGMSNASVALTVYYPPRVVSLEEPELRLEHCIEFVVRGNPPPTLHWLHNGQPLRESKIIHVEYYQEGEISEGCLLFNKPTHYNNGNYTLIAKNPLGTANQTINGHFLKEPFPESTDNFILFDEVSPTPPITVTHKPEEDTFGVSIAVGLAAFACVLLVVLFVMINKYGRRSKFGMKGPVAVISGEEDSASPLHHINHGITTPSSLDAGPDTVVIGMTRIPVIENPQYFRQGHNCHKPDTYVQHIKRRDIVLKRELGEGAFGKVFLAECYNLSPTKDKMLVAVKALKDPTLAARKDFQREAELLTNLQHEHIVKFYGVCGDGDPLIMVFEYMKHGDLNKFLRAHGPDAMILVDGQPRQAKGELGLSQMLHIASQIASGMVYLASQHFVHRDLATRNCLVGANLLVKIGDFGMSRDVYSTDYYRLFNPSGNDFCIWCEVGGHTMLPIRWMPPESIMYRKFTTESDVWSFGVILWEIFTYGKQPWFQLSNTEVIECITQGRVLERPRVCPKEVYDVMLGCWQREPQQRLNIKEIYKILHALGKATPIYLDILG
# Measurement description: KINOMEscan competition binding
# Experimental parameters: compound 10.0 µM
// returns criterion not met unless kinase still bound, per cent of control is strictly below 70%, in which case criterion met

Smiles	Category label
COc1cc(N2CCN(C)CC2)ccc1Nc1ncc2c(n1)Nc1ccccc1NC2=O	criterion met

Ask: Please indicate whether the reported kinase still bound, per cent of control of `COc1cc(N2CCC(O)CC2)ccc1Nc1ncc2c(n1)N1CCc3cccc(c31)C(=O)N2C` is strictly below 70%.
Reply: criterion not met

Ask: Consider the molecule `COc1cc(N2CCN(C)CC2)ccc1Nc1ncc2c(n1)N(C)c1ccccc1N(C)C2=O` . Is its kinase still bound, per cent of control strictly less than 70%?
Reply: criterion not met

Ask: State whether 70% exceeds kinase still bound, per cent of control recorded for `O=C1NC(=S)S/C1=C\c1ccc(-c2cncc3ccccc23)o1` .
Reply: criterion met

* * *

Parameter: IC50. Scope: all listed entries.
# System name: HIPK1 (human) (UniProt Q86Z02)
# Sequence (Q86Z02 whole entry, looked up): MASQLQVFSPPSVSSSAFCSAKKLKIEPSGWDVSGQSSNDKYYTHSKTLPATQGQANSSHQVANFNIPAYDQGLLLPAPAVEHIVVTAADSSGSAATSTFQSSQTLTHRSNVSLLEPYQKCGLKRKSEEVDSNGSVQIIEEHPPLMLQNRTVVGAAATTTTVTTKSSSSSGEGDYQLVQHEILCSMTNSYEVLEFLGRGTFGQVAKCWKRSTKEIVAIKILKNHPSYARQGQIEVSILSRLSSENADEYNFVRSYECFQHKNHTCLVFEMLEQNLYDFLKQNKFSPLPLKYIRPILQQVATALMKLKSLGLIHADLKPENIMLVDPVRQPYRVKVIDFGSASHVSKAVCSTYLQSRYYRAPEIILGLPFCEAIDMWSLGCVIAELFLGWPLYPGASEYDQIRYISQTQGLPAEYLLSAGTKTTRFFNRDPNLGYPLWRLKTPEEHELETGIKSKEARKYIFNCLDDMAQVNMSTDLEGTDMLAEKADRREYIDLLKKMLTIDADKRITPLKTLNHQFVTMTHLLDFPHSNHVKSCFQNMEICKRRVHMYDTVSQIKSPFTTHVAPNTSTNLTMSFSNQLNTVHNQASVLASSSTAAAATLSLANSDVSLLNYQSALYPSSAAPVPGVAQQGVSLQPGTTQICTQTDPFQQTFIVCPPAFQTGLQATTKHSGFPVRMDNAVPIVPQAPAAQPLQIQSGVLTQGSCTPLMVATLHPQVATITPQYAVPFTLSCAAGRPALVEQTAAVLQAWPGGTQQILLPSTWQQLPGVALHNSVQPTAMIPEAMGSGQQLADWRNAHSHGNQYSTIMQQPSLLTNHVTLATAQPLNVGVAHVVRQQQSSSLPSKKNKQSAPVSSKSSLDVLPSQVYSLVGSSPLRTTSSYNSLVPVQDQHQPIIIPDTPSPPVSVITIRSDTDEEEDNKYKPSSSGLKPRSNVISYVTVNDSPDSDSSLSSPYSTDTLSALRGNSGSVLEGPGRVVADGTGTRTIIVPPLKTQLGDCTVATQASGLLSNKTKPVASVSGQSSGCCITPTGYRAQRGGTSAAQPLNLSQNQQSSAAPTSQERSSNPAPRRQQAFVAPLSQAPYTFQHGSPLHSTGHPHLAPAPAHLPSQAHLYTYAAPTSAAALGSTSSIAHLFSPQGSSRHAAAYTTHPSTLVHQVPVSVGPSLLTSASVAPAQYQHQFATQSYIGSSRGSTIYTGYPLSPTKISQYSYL
Record the value in nM, omitting the unit from your answer.

Smiles	System name	IC50 / nM
CS(=O)(=O)Nc1ccc(-c2cc(/C=C3\SC(=O)NC3=O)c[nH]c2=O)cc1	HIPK1 (human) (UniProt Q86Z02)	527
N=C1NC(=O)/C(=C/c2c[nH]c(=O)c(-c3cccc(N)c3)c2)S1	HIPK1 (human) (UniProt Q86Z02)	317

In the following, a different molecule is considered.
For reference, reported IC50 for `N=C1NC(=O)/C(=C/c2c[nH]c(=O)c(-c3ccc(N4CCNCC4)nc3)c2)S1` stands at 507

* * *

# kinase still bound, per cent of control per record follows
# System name: BRSK2 (human) (UniProt Q8IWQ3)
# Sequence (Q8IWQ3 whole entry, looked up): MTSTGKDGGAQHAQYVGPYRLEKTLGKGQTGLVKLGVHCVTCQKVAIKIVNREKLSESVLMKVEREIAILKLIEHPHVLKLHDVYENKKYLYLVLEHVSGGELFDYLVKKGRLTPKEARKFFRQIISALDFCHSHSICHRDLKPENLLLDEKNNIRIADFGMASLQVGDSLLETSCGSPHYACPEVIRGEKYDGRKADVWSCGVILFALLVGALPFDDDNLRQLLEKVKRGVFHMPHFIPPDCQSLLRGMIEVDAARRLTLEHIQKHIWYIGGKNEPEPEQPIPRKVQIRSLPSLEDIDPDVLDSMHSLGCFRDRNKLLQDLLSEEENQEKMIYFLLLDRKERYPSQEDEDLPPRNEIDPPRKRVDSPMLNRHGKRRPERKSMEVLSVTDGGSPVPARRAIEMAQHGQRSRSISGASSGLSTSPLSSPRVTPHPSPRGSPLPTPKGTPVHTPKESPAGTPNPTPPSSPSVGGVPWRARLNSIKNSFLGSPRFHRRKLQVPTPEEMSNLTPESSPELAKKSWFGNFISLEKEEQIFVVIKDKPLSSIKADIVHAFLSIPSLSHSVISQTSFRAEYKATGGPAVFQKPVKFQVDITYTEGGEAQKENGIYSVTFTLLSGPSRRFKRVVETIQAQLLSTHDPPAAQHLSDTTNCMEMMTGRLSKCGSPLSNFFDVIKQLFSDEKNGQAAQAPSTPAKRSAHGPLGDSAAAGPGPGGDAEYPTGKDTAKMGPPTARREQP
# Measurement description: KINOMEscan competition binding
# Experimental parameters: compound 10.0 µM
The figure you give is taken to be in %; do not add the unit.

Recorded results for 5 compounds are shown here.
Smiles	System name	Unit of measure	Value reported
CS(=O)(=O)Nc1ccc(-c2ncc(/C=C3\SC(=N)NC3=O)s2)cc1	BRSK2 (human) (UniProt Q8IWQ3)	%	28
O=C1NC(=O)/C(=C/c2c[nH]c(=O)c(-c3ccc(N4CCNCC4)nc3)c2)S1	BRSK2 (human) (UniProt Q8IWQ3)	%	100
COc1cc(N2CCC(O)CC2)ccc1Nc1ncc2c(n1)N1CCc3cccc(c31)C(=O)N2C	BRSK2 (human) (UniProt Q8IWQ3)	%	85
N=C1NC(=O)/C(=C/c2ccc(-c3ccc(C(N)=O)cc3O)o2)S1	BRSK2 (human) (UniProt Q8IWQ3)	%	17
N=C1NC(=O)/C(=C/c2ccc(-c3csc4ccccc34)o2)S1	BRSK2 (human) (UniProt Q8IWQ3)	%	18

Recorded kinase still bound, per cent of control (compound `CS(=O)(=O)Nc1ccc(-c2cncc(/C=C3\SC(=N)NC3=O)c2)cc1` ): 28

So, `N=C1NC(=O)/C(=C/c2ccc(-c3ccc(F)cc3O)o2)S1` ? Its kinase still bound, per cent of control was 23

Query `COc1cc(N2CCN(C)CC2)ccc1Nc1ncc2c(n1)N(C)c1ccccc1N(C)C2=O` yields kinase still bound, per cent of control of 85

Notebook: `COc1cc(N2CCN(C)CC2)ccc1Nc1ncc2c(n1)Nc1ccccc1NC2=O` , kinase still bound, per cent of control read as 100

Reported kinase still bound, per cent of control for `COc1cc(C(=O)NC2CCN(C)CC2)ccc1Nc1ncc2c(n1)N(C1CCCC1)CCC(=O)N2C(C)C` was 0

Hey, just so you know, these numbers are from the kinase profiling compilation of Christmann-Franck et al. (2016).
